- ASSAY_SYSTEM: ATP-binding cassette sub-family C member 2 (Rattus norvegicus, UniProt Q63120)
- Sequence (Q63120 whole entry): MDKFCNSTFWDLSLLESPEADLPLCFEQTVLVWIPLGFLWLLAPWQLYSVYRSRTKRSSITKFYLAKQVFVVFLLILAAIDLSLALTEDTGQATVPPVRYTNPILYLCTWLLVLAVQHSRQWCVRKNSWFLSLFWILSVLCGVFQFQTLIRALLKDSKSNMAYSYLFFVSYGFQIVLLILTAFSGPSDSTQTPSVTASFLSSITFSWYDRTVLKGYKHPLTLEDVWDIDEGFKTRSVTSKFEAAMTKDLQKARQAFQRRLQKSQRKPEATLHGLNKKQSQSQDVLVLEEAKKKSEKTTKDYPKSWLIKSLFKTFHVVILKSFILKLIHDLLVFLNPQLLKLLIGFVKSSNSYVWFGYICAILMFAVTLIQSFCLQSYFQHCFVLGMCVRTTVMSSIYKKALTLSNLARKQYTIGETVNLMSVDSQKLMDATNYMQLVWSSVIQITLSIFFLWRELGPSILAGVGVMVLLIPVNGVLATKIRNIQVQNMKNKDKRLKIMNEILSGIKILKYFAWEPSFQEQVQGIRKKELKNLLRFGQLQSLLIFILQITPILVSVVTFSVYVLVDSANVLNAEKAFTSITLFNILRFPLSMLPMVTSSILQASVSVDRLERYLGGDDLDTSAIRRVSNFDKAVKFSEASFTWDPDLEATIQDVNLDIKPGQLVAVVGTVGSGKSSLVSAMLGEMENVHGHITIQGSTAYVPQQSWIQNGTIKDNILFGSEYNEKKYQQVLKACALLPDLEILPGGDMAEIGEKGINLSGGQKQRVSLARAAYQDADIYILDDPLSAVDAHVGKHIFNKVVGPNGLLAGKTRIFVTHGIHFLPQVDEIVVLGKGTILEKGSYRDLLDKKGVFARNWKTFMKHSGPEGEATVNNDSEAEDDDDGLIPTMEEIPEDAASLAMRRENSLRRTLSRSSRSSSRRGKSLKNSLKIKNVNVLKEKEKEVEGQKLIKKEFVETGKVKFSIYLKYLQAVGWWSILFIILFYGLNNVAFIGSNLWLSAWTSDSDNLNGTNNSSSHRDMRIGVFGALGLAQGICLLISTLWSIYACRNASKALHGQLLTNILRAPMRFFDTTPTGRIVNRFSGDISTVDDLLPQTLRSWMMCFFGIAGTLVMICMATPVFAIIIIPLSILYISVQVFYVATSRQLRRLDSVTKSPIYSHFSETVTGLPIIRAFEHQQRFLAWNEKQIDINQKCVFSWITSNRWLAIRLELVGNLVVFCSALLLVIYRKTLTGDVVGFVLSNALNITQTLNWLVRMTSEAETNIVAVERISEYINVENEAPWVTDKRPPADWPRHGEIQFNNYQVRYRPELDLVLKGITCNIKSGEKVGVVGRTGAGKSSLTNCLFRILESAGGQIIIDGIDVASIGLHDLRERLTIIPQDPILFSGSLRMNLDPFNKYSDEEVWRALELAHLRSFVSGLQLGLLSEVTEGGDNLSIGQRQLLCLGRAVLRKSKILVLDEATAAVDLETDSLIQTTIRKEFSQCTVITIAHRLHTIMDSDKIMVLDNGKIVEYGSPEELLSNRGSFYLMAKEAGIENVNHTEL
- TEST_METHOD_NOTES: TP_TRANSPORTER: inhibition of DNP-SG uptake in bile canalicular membrane vesicles from SD rat
OBSERVABLE: Ki

Asked: For the compound CNc1nc2c(Cc3cccnc3)c(C)c(O[C@@H]3O[C@H](C(=O)O)[C@@H](O)[C@H](O)[C@H]3O)c(C)c2s1 [E3040 GLUCURONIDE] , what Ki is on record?
Given back: 3.84 µM

FYI, the data here is from ChEMBL document CHEMBL2073965.
